target: Cytochrome P450 2C9 (Homo sapiens, UniProt P11712); assay: Inhibition of human CYP2C9; assay type: ADME
Sequence (P11712 whole entry): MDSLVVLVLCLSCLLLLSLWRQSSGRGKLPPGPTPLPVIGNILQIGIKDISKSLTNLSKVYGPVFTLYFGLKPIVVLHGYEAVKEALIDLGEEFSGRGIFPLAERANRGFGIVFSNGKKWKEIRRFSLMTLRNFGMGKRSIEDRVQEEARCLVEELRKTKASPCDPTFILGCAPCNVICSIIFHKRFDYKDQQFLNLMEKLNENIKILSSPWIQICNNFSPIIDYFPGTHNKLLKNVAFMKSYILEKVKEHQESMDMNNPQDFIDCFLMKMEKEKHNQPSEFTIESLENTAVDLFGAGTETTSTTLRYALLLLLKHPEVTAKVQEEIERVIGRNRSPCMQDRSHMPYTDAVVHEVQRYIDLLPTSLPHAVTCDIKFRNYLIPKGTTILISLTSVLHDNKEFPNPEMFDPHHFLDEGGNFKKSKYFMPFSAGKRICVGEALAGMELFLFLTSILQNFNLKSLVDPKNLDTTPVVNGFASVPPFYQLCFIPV
MEASURED_METRIC: IC50

INSERT INTO measurements (structure_as_smiles, measured_metric, result) VALUES
  ('CN1CC=C(c2c[nH]c3ccc(NC(=N)c4ccco4)cc23)CC1.Cl.Cl', 'IC50', '> 100 µM');

====

target: Cytochrome P450 2C19 (Homo sapiens)
Sequence (P33261 whole entry): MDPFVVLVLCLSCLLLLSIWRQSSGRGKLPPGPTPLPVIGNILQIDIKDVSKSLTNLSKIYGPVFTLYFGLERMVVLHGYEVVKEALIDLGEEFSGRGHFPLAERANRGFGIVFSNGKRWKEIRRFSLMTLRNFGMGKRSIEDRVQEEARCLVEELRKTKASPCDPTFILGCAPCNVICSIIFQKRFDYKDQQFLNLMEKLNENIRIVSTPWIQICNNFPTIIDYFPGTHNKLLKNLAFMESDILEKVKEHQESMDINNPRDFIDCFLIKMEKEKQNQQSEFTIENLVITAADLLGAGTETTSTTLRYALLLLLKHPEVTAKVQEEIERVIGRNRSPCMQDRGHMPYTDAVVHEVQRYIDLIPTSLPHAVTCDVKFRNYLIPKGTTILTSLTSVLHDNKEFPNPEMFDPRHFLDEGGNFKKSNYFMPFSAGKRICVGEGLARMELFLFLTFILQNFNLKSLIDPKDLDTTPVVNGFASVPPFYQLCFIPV
MEASURED_METRIC: IC50

INSERT INTO results (structure_as_smiles, target_or_test_system, result) VALUES
  ('CN1CC=C(c2c[nH]c3ccc(NC(=N)c4ccco4)cc23)CC1.Cl.Cl', 'Cytochrome P450 2C19 (Homo sapiens)', '> 100 µM');

====

biological target: Cytochrome P450 2D6 (Homo sapiens)
pIC50: −log10 of the molar value.
MEASURED_METRIC: pIC50

INSERT INTO measurements (structure_as_smiles, measured_metric, numeric_readout) VALUES
  ('CN1CC=C(c2c[nH]c3ccc(NC(=N)c4ccco4)cc23)CC1.Cl.Cl', 'pIC50', 4.69);

====

target: Nitric oxide synthase 3 (Homo sapiens, UniProt P29474)
Sequence (P29474 whole entry): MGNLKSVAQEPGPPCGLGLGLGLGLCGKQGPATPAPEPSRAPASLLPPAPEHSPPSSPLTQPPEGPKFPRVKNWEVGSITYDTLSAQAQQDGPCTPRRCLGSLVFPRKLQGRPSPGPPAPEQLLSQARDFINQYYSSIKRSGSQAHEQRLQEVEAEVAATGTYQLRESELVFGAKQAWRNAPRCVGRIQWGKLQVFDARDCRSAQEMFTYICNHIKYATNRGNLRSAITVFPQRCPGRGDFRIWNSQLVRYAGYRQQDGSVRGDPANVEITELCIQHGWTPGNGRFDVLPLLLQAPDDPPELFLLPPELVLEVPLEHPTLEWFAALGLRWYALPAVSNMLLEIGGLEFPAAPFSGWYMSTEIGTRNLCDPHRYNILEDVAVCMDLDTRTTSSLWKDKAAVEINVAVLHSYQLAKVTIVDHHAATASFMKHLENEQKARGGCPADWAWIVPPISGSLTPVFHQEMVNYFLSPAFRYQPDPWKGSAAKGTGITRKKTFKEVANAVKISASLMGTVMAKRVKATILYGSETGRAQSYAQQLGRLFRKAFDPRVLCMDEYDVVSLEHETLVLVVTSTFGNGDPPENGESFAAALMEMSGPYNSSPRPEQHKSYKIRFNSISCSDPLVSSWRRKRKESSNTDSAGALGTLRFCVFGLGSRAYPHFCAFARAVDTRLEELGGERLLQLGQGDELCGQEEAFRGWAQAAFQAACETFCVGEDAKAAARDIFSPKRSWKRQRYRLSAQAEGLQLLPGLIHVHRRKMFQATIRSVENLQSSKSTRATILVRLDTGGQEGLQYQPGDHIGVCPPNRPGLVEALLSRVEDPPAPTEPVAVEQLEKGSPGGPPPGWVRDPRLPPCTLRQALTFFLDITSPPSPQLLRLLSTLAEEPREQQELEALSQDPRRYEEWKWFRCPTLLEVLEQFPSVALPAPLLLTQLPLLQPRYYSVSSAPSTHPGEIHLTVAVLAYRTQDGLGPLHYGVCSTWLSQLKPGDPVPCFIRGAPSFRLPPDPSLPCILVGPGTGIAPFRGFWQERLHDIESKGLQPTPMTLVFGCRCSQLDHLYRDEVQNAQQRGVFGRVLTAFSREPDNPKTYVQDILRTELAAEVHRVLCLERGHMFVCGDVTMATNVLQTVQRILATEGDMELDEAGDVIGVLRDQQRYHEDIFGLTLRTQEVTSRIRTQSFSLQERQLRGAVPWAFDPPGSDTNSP
IC50 less than 40 µM is Condition met; IC50 greater than or equal to 40 µM is Condition not met.

INSERT INTO results (structure_as_smiles, discrete_label) VALUES
  ('CN1CC=C(c2c[nH]c3ccc(NC(=N)c4cccs4)cc23)CC1', 'Condition met'),
  ('CN1CC=C(c2c[nH]c3ccc(NC(=N)c4ccco4)cc23)CC1.Cl.Cl', 'Condition met'),
  ('CN1CC=C(c2c[nH]c3ccc(CNC(=N)c4cccs4)cc23)CC1', 'Condition not met'),
  ('CN1CCC(c2c[nH]c3ccc(NC(=N)c4cccs4)cc23)CC1', 'Condition met'),
  ('Cc1ccc(C(=N)Nc2ccc3[nH]cc(C4=CCN(C)CC4)c3c2)s1', 'Condition not met');

====

Biological target: Cytochrome P450 1A2 (Homo sapiens, UniProt P05177)
Sequence (P05177 whole entry): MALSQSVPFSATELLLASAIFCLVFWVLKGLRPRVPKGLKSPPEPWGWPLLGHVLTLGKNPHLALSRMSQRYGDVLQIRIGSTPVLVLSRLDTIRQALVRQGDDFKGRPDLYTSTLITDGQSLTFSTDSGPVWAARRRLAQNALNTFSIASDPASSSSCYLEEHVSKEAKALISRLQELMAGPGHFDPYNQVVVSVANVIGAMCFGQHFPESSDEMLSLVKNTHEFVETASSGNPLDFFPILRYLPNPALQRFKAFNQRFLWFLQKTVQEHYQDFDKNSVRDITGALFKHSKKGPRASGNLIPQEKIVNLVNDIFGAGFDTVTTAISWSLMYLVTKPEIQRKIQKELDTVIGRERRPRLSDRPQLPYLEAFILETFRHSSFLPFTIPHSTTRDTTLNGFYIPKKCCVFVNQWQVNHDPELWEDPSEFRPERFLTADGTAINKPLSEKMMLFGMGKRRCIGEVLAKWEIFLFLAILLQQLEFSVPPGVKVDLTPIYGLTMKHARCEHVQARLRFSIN
pIC50: −log10 of the molar value.
MEASURED_METRIC: pIC50

INSERT INTO measurements (structure_as_smiles, measured_metric, numeric_readout) VALUES
  ('CN1CC=C(c2c[nH]c3ccc(NC(=N)c4ccco4)cc23)CC1.Cl.Cl', 'pIC50', 5.02);

====

target: Nitric oxide sythases; iNOS & nNOS (Homo sapiens) (UniProt P29475+P35228); assay: Selectivity ratio of IC50 for human iNOS to IC50 for human nNOS
Sequence (P29475 whole entry, looked up): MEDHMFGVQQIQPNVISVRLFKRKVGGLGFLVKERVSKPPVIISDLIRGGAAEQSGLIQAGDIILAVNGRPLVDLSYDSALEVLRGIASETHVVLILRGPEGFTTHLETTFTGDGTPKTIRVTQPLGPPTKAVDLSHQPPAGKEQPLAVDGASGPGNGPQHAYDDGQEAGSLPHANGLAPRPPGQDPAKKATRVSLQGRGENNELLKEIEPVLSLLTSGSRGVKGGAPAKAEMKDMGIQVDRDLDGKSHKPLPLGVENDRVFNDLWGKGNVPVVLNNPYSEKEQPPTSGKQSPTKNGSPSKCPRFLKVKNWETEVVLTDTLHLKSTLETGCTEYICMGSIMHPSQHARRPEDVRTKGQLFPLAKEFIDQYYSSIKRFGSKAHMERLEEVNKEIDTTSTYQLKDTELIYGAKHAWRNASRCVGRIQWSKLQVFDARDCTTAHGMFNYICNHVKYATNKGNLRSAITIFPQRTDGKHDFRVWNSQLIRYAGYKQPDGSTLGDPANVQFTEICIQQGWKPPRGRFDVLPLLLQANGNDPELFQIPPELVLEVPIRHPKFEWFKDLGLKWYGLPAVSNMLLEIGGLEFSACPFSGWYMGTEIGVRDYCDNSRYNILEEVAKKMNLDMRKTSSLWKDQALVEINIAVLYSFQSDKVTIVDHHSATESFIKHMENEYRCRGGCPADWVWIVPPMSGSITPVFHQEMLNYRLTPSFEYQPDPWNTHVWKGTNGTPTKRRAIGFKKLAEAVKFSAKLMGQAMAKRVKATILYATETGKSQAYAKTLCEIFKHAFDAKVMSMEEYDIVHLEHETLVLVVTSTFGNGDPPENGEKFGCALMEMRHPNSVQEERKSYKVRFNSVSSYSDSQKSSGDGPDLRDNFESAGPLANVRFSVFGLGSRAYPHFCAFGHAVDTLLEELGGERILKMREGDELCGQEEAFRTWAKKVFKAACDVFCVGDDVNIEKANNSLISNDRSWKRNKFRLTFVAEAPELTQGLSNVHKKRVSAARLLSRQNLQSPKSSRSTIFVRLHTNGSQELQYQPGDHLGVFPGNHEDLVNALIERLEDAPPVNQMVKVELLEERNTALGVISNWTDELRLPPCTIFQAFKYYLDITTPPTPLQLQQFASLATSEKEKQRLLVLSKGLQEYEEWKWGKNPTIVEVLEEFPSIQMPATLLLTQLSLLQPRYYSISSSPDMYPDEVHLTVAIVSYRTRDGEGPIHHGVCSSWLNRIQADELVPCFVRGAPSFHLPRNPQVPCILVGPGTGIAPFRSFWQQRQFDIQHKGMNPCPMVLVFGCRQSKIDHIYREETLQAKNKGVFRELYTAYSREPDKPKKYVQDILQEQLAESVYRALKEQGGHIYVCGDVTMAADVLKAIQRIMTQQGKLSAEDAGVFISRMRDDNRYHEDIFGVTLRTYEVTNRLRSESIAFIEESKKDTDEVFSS
Sequence (P35228 whole entry, looked up): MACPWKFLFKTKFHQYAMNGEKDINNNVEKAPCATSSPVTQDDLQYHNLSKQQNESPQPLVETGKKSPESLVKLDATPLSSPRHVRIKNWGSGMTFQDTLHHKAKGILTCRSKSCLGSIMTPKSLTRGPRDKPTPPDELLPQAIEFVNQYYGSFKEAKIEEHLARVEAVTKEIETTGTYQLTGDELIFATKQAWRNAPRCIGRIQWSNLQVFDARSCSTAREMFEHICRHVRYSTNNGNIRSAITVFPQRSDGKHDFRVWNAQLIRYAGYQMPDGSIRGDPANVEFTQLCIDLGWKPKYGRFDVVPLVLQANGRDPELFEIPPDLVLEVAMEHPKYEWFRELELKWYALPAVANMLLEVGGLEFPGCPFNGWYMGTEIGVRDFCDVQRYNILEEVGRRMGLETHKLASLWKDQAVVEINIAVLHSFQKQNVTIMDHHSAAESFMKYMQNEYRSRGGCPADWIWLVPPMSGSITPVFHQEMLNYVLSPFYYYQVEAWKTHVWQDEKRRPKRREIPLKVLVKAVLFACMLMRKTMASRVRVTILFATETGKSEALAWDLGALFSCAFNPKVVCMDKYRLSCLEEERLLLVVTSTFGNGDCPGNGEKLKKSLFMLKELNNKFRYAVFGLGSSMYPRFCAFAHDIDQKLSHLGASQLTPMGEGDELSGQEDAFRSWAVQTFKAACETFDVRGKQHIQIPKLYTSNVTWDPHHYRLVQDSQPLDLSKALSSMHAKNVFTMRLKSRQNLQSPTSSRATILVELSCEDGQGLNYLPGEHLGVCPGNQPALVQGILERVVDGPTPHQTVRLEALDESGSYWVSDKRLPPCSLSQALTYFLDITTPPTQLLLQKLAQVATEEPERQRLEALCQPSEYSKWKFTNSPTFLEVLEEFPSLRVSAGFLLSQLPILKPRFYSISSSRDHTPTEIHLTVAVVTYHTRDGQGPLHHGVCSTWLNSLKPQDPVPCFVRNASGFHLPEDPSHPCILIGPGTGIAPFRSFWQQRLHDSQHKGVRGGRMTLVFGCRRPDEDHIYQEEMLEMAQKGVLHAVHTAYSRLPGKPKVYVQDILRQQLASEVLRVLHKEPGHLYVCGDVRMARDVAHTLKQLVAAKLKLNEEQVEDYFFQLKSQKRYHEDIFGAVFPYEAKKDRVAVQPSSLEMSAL
MEASURED_METRIC: Ratio IC50

INSERT INTO results (structure_as_smiles, result) VALUES
  ('CN1CCC(c2c[nH]c3ccc(/N=C(\N)c4cccs4)cc23)CC1', 57),
  ('CN1CC=C(c2c[nH]c3ccc(/N=C(\N)c4ccco4)cc23)CC1', 106),
  ('CN1CC=C(c2c[nH]c3ccc(/N=C(\N)c4cccs4)cc23)CC1', 105),
  ('CN1CC=C(c2c[nH]c3cc(NC(=N)c4cccs4)ccc23)CC1', 15),
  ('CS/C(N)=N/c1ccc2[nH]cc(C3=CCN(C)CC3)c2c1', 8),
  ('CN1CCC(c2c[nH]c3ccc(/N=C(\N)c4ccco4)cc23)CC1', 48),
  ('CN1CC=C(c2c[nH]c3ccc(C/N=C(\N)c4cccs4)cc23)CC1', 66);

====

biological target: Nitric oxide synthase 1 (Homo sapiens, UniProt P29475)
Sequence (P29475 whole entry): as the sequence (P29475 whole entry, looked up) above
MEASURED_METRIC: IC50 (nM)

INSERT INTO assay_data (structure_as_smiles, numeric_readout) VALUES
  ('Cc1ccc(C(=N)Nc2ccc3[nH]cc(C4=CCN(C)CC4)c3c2)s1', 10400),
  ('CN1CC=C(c2c[nH]c3ccc(CNC(=N)c4cccs4)cc23)CC1', 1290),
  ('CN1CCC(c2c[nH]c3ccc(NC(=N)c4ccccc4)cc23)CC1', 18000),
  ('CN1CC=C(c2c[nH]c3ccc(NC(=N)c4cccs4)cc23)CC1', 190),
  ('CN1CC=C(c2c[nH]c3ccc(NC(=N)c4ccco4)cc23)CC1.Cl.Cl', 550);

====

pIC50: −log10 of the molar value.
Please consider the recorded pIC50 for Nitric oxide synthase 1 (Rattus norvegicus, UniProt P29476) in what follows.
MEASURED_METRIC: pIC50

INSERT INTO assay_data (structure_as_smiles, target_or_test_system, measured_metric, numeric_readout) VALUES
  ('CN1CC=C(c2c[nH]c3ccc(NC(=N)c4cccs4)cc23)CC1', 'Nitric oxide synthase 1 (Rattus norvegicus, UniProt P29476)', 'pIC50', 5.64),
  ('CN1CC=C(c2c[nH]c3ccc(NC(=N)c4ccco4)cc23)CC1.Cl.Cl', 'Nitric oxide synthase 1 (Rattus norvegicus, UniProt P29476)', 'pIC50', 5.59);

====

biological target: UniProtKB P35228
Sequence (P35228 whole entry): as the sequence (P35228 whole entry, looked up) above
Quick reference: IC50 of the listed items.
MEASURED_METRIC: IC50

INSERT INTO measurements (structure_as_smiles, result) VALUES
  ('CSC(=N)Nc1ccc2[nH]cc(C3=CCN(C)CC3)c2c1', '17.1 µM'),
  ('CN1CCC(c2c[nH]c3ccc(NC(=N)c4ccco4)cc23)CC1', '108 µM');

====

Quick reference: Ratio IC50 of the listed items.
organism: Homo sapiens; test: Selectivity ratio of IC50 for human eNOS to IC50 for human nNOS
MEASURED_METRIC: Ratio IC50

INSERT INTO results (structure_as_smiles, numeric_readout) VALUES
  ('CN1CC=C(c2c[nH]c3ccc(NC(=S)NC(=O)c4ccccc4)cc23)CC1', 3),
  ('CN1CC=C(c2c[nH]c3cc(NC(=N)c4cccs4)ccc23)CC1', 33),
  ('CN1CC=C(c2c[nH]c3ccc(C/N=C(\N)c4cccs4)cc23)CC1', 50),
  ('CN1CCC(c2c[nH]c3ccc(/N=C(\N)c4ccco4)cc23)CC1', 43),
  ('CN1CCC(c2c[nH]c3ccc(NC(=N)c4ccccc4)cc23)CC1', 14),
  ('Cc1ccc(C(=N)Nc2ccc3[nH]cc(C4=CCN(C)CC4)c3c2)s1', 6),
  ('CCS/C(N)=N/c1ccc2[nH]cc(C3=CCN(C)CC3)c2c1', 22),
  ('CS/C(N)=N/c1ccc2[nH]cc(C3=CCN(C)CC3)c2c1', 16),
  ('CN1CC=C(c2c[nH]c3ccc(/N=C(\N)c4cccs4)cc23)CC1', 118),
  ('CN1CC=C(c2c[nH]c3ccc(/N=C(\N)c4ccco4)cc23)CC1', 66);

====

biological target: Cytochrome P450 3A4 (Homo sapiens)
pIC50: −log10 of the molar value.
MEASURED_METRIC: pIC50

INSERT INTO results (structure_as_smiles, target_or_test_system, result) VALUES
  ('CN1CC=C(c2c[nH]c3ccc(NC(=N)c4ccco4)cc23)CC1.Cl.Cl', 'Cytochrome P450 3A4 (Homo sapiens)', '< 4.00');
